Where a name gives a salt, the structure may show the parent alone.
For reference, PicoGreen effect [%] 20 µM measured on annealed dsDNA substrate:
Answer with a number only, understood to be in %.

Query :: Quick check: PicoGreen effect [%] 20 µM of O=C(O)c1ccccc1Nc1ccc(CCc2ccc(Cl)c(Cl)c2)cc1 ?
Result :: 11.19

Query :: Quick check: PicoGreen effect [%] 20 µM of CC(C)c1ccccc1Cc1cc(C(=O)Nc2ccc(S(=O)(=O)c3ccccc3C(C)(C)C)cc2)c(O)c(O)c1O ?
Result :: 3.9

Query :: Quick check: PicoGreen effect [%] 20 µM of Cc1cc(N)c2ccccc2[n+]1CCCCCCCCCC[n+]1c(C)cc(N)c2ccccc21 [dequalinium chloride] ?
Result :: −4.04

Query :: Quick check: PicoGreen effect [%] 20 µM of O=c1c(O)c(-c2ccc(O)c(O)c2)oc2cc(O)ccc12 ?
Result :: 4.99

Query :: Quick check: PicoGreen effect [%] 20 µM of O=C(O)c1c(Cl)c(Cl)c(Cl)c(Cl)c1-c1c2cc(I)c(=O)c(I)c-2oc2c(I)c(O)c(I)cc12 [rose bengal sodium salt] ?
Result :: 30.91

Query :: Quick check: PicoGreen effect [%] 20 µM of COc1cc(NC(C)CCCN)c2ncccc2c1 (stereo not shown) [primaquine phosphate] ?
Result :: 1.58

Query :: Quick check: PicoGreen effect [%] 20 µM of CC1(C)C(/C=C/C=C/C=C/C=C2\N(CCCCS(=O)(=O)O)c3ccc4ccccc4c3C2(C)C)=[N+](CCCCS(=O)(=O)[O-])c2ccc3ccccc3c21 ?
Result :: 26.52

Query :: Quick check: PicoGreen effect [%] 20 µM of O=C(O)c1cc(/N=N/c2ccc(O)c(C(=O)O)c2)ccc1O [olsalazine sodium] ?
Result :: 12.75

Query :: Quick check: PicoGreen effect [%] 20 µM of O=C(N/N=C/c1ccc(O)c(O)c1)c1cc2ccccc2cc1O ?
Result :: 6.63

Query :: Quick check: PicoGreen effect [%] 20 µM of Cc1c(Cl)c(C)[n+]([O-])c(Cl)c1-c1noc(-c2cc(O)c(O)c([N+](=O)[O-])c2)n1 ?
Result :: 6.86

Query :: Quick check: PicoGreen effect [%] 20 µM of C=C1c2cccc(O)c2C(=O)C2=C(O)[C@]3(O)C(=O)C(C(N)=O)=C(O)[C@@H](N(C)C)[C@@H]3[C@@H](O)[C@H]12 [methacycline hydrochloride] ?
Result :: 25.54

Query :: Quick check: PicoGreen effect [%] 20 µM of O=C1OC2(c3cc(I)c(O)c(I)c3Oc3c2cc(I)c(O)c3I)c2c(Cl)c(Cl)c(Cl)c(Cl)c21 ?
Result :: 35.69

Query :: Quick check: PicoGreen effect [%] 20 µM of OC[C@H]1O[C@H]([S-])[C@H](O)[C@@H](O)[C@@H]1O.[Au+] ?
Result :: 13.9

Query :: Quick check: PicoGreen effect [%] 20 µM of O=C(N/N=C/c1ccc([N+](=O)[O-])o1)c1cc([N+](=O)[O-])cc([N+](=O)[O-])c1O ?
Result :: 8.54

Query :: Quick check: PicoGreen effect [%] 20 µM of OCCOCCN1CCN(C(c2ccccc2)c2ccc(Cl)cc2)CC1 (stereo not shown) [hydroxyzine pamoate] ?
Result :: 1.28

Query :: Quick check: PicoGreen effect [%] 20 µM of O=C(c1cc(O)c(O)c(O)c1)c1ccc(O)c(O)c1O ?
Result :: 8.87

====

- Tested System: SARS-CoV-2 nsp13 NTPase activity (Severe acute respiratory syndrome coronavirus 2, UniProt P0DTD1)
- Experiment: biochemical
- Assay type: biochemical
Reported Property: DTT Helicase ATPase activity PLUS DNA substrate 2 µM
# output: bare number, no unit

Query :: Quick check: DTT Helicase ATPase activity PLUS DNA substrate 2 µM of CO[C@H](C(=O)[C@@H](O)[C@@H](C)O)[C@@H]1Cc2cc3cc(O[C@H]4C[C@@H](O[C@H]5C[C@@H](O)[C@H](O)[C@@H](C)O5)[C@H](O)[C@@H](C)O4)c(C)c(O)c3c(O)c2C(=O)[C@H]1O[C@H]1C[C@@H](O[C@H]2C[C@@H](O[C@H]3C[C@](C)(O)[C@H](O)[C@@H](C)O3)[C@@H](O)[C@@H](C)O2)[C@H](O)[C@@H](C)O1 [plicamycin (mithramycin), plicamycin] ?
Result :: 133.03

Query :: Quick check: DTT Helicase ATPase activity PLUS DNA substrate 2 µM of O=C(c1cc(O)c(O)c(O)c1)c1ccc(O)c(O)c1O [exifone] ?
Result :: 2.64

Query :: Quick check: DTT Helicase ATPase activity PLUS DNA substrate 2 µM of CC1(C)C(/C=C/C=C/C=C/C=C2\N(CCCCS(=O)(=O)O)c3ccc4ccccc4c3C2(C)C)=[N+](CCCCS(=O)(=O)[O-])c2ccc3ccccc3c21 [cardiogreen] ?
Result :: 51.49

====

- Tested System: SARS-CoV-2 RdRp nsp12/7/8 complex (Severe acute respiratory syndrome coronavirus 2, UniProt P0DTD1)
- Experiment: biochemical
- Type: biochemical
- Settings: read-out: RdRp Inhibition [%] 20 µM (PS Inhibition RdRp [%])
Where a name gives a salt, the structure may show the parent alone.
Reported Property: inhibition at 20 µM (%)
Answer with a number only, understood to be in %.

Query :: Quick check: inhibition at 20 µM of COc1cc(NC(C)CCCN)c2ncccc2c1 (stereo not drawn) [primaquine phosphate] ?
Result :: 102

Query :: Quick check: inhibition at 20 µM of O=C(O)c1c(Cl)c(Cl)c(Cl)c(Cl)c1-c1c2cc(I)c(=O)c(I)c-2oc2c(I)c(O)c(I)cc12 [rose bengal sodium salt] ?
Result :: 98

Query :: Quick check: inhibition at 20 µM of CCOc1ccc2nc3cc(N)ccc3c(N)c2c1 [ethacridine lactate] ?
Result :: 80.3

Query :: Quick check: inhibition at 20 µM of C=C1c2cccc(O)c2C(=O)C2=C(O)[C@]3(O)C(=O)C(C(N)=O)=C(O)[C@@H](N(C)C)[C@@H]3[C@@H](O)[C@H]12 [methacycline hydrochloride] ?
Result :: 120

Query :: Quick check: inhibition at 20 µM of O=C(c1cc(O)c(O)c(O)c1)c1ccc(O)c(O)c1O ?
Result :: 36.6

Query :: Quick check: inhibition at 20 µM of OCCOCCN1CCN(C(c2ccccc2)c2ccc(Cl)cc2)CC1 (stereo not drawn) [hydroxyzine pamoate] ?
Result :: 76.8
